- Assay System: UniProtKB Q8NB16
- Sequence (Q8NB16 whole entry): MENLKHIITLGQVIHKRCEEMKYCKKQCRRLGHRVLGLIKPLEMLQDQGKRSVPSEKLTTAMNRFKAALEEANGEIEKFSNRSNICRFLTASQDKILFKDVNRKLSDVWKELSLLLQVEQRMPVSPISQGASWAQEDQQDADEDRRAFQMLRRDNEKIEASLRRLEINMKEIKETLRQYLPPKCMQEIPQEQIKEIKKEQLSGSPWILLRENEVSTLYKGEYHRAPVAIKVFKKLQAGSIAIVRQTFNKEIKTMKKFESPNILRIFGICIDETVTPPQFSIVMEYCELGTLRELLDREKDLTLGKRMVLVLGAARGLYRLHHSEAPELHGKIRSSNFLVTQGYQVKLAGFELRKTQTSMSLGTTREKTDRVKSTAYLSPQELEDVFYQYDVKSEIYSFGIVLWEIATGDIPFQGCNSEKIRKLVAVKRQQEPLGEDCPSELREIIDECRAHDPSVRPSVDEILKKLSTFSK
- Procedure Text: KINOMEscan binding assay, human MLKL (full length)
- Condition Parameters: hMLKL, Table 25; read-out: MLKL (KD)
pKd: −log10 of the molar value.
Please provide measured pKd for the entries that follow.

# annotated cases, reported pKd shown
INSERT INTO results (molecule, assay_system, metric_name, assay_value) VALUES
  ('C[C@H](Oc1cc(-c2nn(C)c3c(-c4cnn(C5CCN(C(=O)CC6CCN(c7cccc8c7C(=O)N(C7CCC(=O)NC7=O)C8=O)C6)CC5)c4)cnc(N)c23)ccc1NS(=O)(=O)C(F)F)c1ccc(F)cc1 (stereo partly drawn) [Compound 1053]', 'UniProtKB Q8NB16', 'pKd', '6.00 to 8.00'),
  ('C[C@H](Oc1cc(-c2nn(C)c3c(-c4cnn(C5CCN(Cc6cccc(CNc7cccc8c7C(=O)N(C7CCC(=O)NC7=O)C8=O)c6)CC5)c4)cnc(N)c23)ccc1NS(=O)(=O)C(F)F)c1ccc(F)cc1 (stereo partly drawn) [Compound 1095]', 'UniProtKB Q8NB16', 'pKd', '6.00 to 8.00'),
  ('C[C@H](Oc1cc(-c2nn(C)c3c(-c4cnn(C5CCN(C(=O)[C@H]6C[C@H](Nc7cccc8c7C(=O)N(C7CCC(=O)NC7=O)C8=O)C6)C(C)(C)C5)c4)cnc(N)c23)ccc1NS(=O)(=O)C(F)F)c1ccc(F)cc1 (stereo partly drawn) [Compound 1116]', 'UniProtKB Q8NB16', 'pKd', '> 8.00'),
  ('C[C@H](Oc1cc(-c2nn(C)c3c(-c4cnn(C5CCN(C(=O)C6CCN(c7cccc8c7C(=O)N(C7CCC(=O)NC7=O)C8=O)C6)CC5)c4)cnc(N)c23)ccc1NS(=O)(=O)C(F)F)c1ccc(F)cc1 (stereo partly drawn) [Compound 1054]', 'UniProtKB Q8NB16', 'pKd', '6.00 to 8.00');

Provide the reported pKd of each entry below, same order.
1. Cc1ncsc1-c1ccc(CNC(=O)[C@@H]2C[C@@H](O)CN2C(=O)[C@@H](NC(=O)COCCOCCOCCn2cc(-c3cnc(N)c4c(-c5ccc(NS(=O)(=O)C(F)F)c(O[C@@H](C)c6ccc(F)cc6)c5)nn(C)c34)cn2)C(C)(C)C)cc1 [Compound 1009]
2. C[C@H](Oc1cc(-c2nn(C)c3c(-c4cnn(C5CCC(C(=O)N6CC(Nc7cccc8c7C(=O)N(C7CCC(=O)NC7=O)C8=O)C6)CC5)c4)cnc(N)c23)ccc1NS(=O)(=O)C(F)F)c1ccc(F)cc1 (stereo partly drawn) [Compound 1133]
3. Cc1ncsc1-c1ccc(CNC(=O)[C@@H]2C[C@@H](O)CN2C(=O)[C@@H](NC(=O)COCCN2CCC(n3cc(-c4cnc(N)c5c(-c6ccc(NS(=O)(=O)C(F)F)c(O[C@@H](C)c7ccc(F)cc7)c6)nn(C)c45)cn3)CC2)C(C)(C)C)cc1 [Compound 1018]
4. C[C@H](Oc1cc(-c2nn(C)c3c(-c4cnn(C5CCN(CCCN6CCN(C(=O)COc7cccc8c7C(=O)N(C7CCC(=O)NC7=O)C8=O)CC6)CC5)c4)cnc(N)c23)ccc1NS(=O)(=O)C(F)F)c1ccc(F)cc1 (stereo partly drawn) [Compound 1099]
5. C[C@H](Oc1cc(-c2nn(C)c3c(-c4cnn(C5CCN(C(=O)C6CCN(c7cccc8c7C(=O)N(C7CCC(=O)NC7=O)C8=O)CC6)CC5)c4)cnc(N)c23)ccc1NS(=O)(=O)C(F)F)c1ccc(F)cc1 (stereo partly drawn) [Compound 1044]

Found:
> 8.00
6.00 to 8.00
> 8.00
> 8.00
> 8.00

Just for reference, patent US20250115598A1 is where these values come from.
